- measurement target: T1, human CD154, soluble antigen (human, UniProt P29965 116-261, limits assumed)
- T1 construct: KinExA uses 'soluble antigen'; also called CD40 ligand; CD40L
- T1 sequence (looked up): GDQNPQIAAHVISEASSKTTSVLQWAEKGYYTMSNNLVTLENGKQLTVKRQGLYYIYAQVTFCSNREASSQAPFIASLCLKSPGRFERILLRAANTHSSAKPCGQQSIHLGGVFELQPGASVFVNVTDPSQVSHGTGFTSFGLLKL
- run description: KinExA solution-phase equilibrium, Fab with soluble antigen
The following binders are shown together with reported Kd values.
attribute measured: Kd

>>> recorded_value("5c8 Fab Mutant #15 (light chain S26D/Q27E/T33W) (Fab, V domains shown) VH: QVQLVQSGAEVVKPGASVKLSCKASGYIFTSYYMYWVKQAPGQGLEWIGEINPSNGDTNFNEKFKSKATLTVDKSASTAYMELSSLRSEDTAVYYCTRSDGRNDMDSWGQGTLVTVSS VL: DIVLTQSPATLSVSPGERATISCRADERVSSSWYSYMHWYQQKPGQPPKLLIKYASNLESGVPARFSGSGSGTDFTLTISSVEPEDFATYYCQHSWEIPPTFGGGTKLEIK")
"0.044 nM"
>>> recorded_value("5c8 Fab Mutant #21 (heavy T30H/Y33W/S54N; light S26D/Q27E) (Fab, V domains shown) VH: QVQLVQSGAEVVKPGASVKLSCKASGYIFHSYWMYWVKQAPGQGLEWIGEINPNNGDTNFNEKFKSKATLTVDKSASTAYMELSSLRSEDTAVYYCTRSDGRNDMDSWGQGTLVTVSS VL: DIVLTQSPATLSVSPGERATISCRADERVSSSTYSYMHWYQQKPGQPPKLLIKYASNLESGVPARFSGSGSGTDFTLTISSVEPEDFATYYCQHSWEIPPTFGGGTKLEIK")
"0.101 nM"
